molecular target: UniProt:P16050; assay: Inhibition of recombinant human 15-LOX-1 expressed in Escherichia coli BL21(DE3) assessed as residual activity at 50 uM using linoleic acid as substrate preincubated for 10 mins followed by substrate addition
OBSERVATION TYPE: Activity (%)

>>> print(df.to_string())
                           structure_smiles  unit_symbol  value_reported
0  Nc1[nH]c2cc(C(F)(F)F)ccc2c1C(=O)N1CCN(CCc2ccccc2)CC1            %             109
1  Nc1[nH]c(C(=O)c2ccccc2)c(-c2ccc(Cl)cc2)c1C(=O)c1ccc(Cl)cc1            %             100
2  Nc1[nH]c(C(=O)c2ccccc2)c(-c2ccccc2Br)c1C(=O)NCCc1ccc(Cl)cc1Cl            %            93.8
3  Nc1[nH]c(C(=O)c2ccccc2)c(-c2ccc(Br)cc2)c1C(=O)NCCc1c[nH]c2ccccc12            %            73.5
4  Nc1[nH]c(C(=O)c2ccccc2)c(-c2ccc(Br)cc2)c1C(=O)NCCCN1CCOCC1            %             104

---

molecular target: Polyunsaturated fatty acid lipoxygenase ALOX15 (Homo sapiens); assay: Inhibition of recombinant human 15-LOX-1 expressed in Escherichia coli BL21(DE3) assessed as residual activity at 50 uM using linoleic acid as substrate preincubated for 10 mins followed by substrate addition
OBSERVATION TYPE: Activity (%)

For orientation, consider the following solved cases.
>>> df
                           structure_smiles  value_reported
0  CC(C)(C)C(=O)c1c(N)[nH]c(C(=O)c2ccccc2)c1-c1ccc(Br)cc1            87.2
1  COc1cc(-c2c(C(=O)c3ccccc3)[nH]c(N)c2C(N)=O)ccc1F             110
2  Nc1[nH]c(C(=O)c2ccc(Br)cc2)c(-c2c(F)cccc2F)c1C(=O)NCCc1c[nH]c2ccccc12            69.3

(P) Nc1[nH]c(C(=O)c2ccccc2)c(-c2ccc(Cl)cc2)c1C(=O)NCc1ccccc1
(Q) COc1ccc(C(=O)c2[nH]c(N)c(C(N)=O)c2-c2ccc(O)c(OC)c2)cc1
### Prompt Lower value for measured Activity? Options: P , Q Lab log: write the label of the selected item as the result.
### Response Q
(Q: 67.1%, P: 97.3%)

(I) Nc1[nH]c(C(=O)c2ccccc2)c(-c2ccc(Br)cc2)c1C(=O)N1CCN(CCO)CC1
(II) Nc1[nH]c(C(=O)c2ccc(Br)cc2)c(-c2ccc(Br)cc2)c1C(=O)NCCc1c[nH]c2ccccc12
### Prompt Given I and II , report the one with the higher recorded Activity. Lab log: write the label of the selected item as the result.
### Response I
(I: 100%, II: 30.6%)

(A) Cc1[nH]c2ccccc2c1C(=O)NCc1ccc(CNC(=O)c2c(N)[nH]c3ccccc23)cc1
(B) COCCNC(=O)c1c(N)[nH]c(C(=O)c2ccc(Br)cc2)c1-c1cccc2ccc(OC)cc12
### Prompt Given A and B , report the one with the higher recorded Activity. Lab log: write the label of the selected item as the result.
### Response A

(I) Nc1[nH]c(C(=O)c2ccccc2)c(-c2ccc([N+](=O)[O-])cc2)c1C(=O)N1CCC(CO)CC1
(II) COc1ccc(C(=O)c2[nH]c(N)c(C(=O)NCCc3c[nH]c4ccccc34)c2-c2ccc(Cl)c(Cl)c2)cc1
### Prompt Lower value for measured Activity? Options: I , II Lab log: write the label of the selected item as the result.
### Response II
(II: 41.9%, I: 85%)

(P) COc1ccc(C(=O)c2[nH]c(N)c(C(=O)c3c[nH]c4ccccc34)c2-c2ccc(OC)cc2)cc1
(Q) Nc1[nH]c(C(=O)c2ccccc2)c(-c2ccc([N+](=O)[O-])cc2)c1C(=O)NCCc1c[nH]c2ccccc12
### Prompt Given P and Q , report the one with the higher recorded Activity. Lab log: write the label of the selected item as the result.
### Response P

(I) Nc1[nH]c(C(=O)c2ccccc2)c(-c2cccc(C(F)(F)F)c2)c1C(=O)c1c[nH]c2ccccc12
(II) COc1ccc(C(=O)c2[nH]c(N)c(C(=O)NCCc3c[nH]c4ccccc34)c2-c2ccc(Cl)cc2Cl)cc1
### Prompt Given I and II , report the one with the higher recorded Activity. Lab log: write the label of the selected item as the result.
### Response I
(I: 114%, II: 64.5%)

(a) Nc1[nH]c(C(=O)c2ccccc2)c(-c2ccc(F)cc2)c1C(=O)c1c[nH]c2ccccc12
(b) Nc1[nH]c(C(=O)c2ccccc2)c(-c2ccc(Cl)cc2Cl)c1C(=O)NCCC1=CCCCC1
### Prompt Lower value for measured Activity? Options: a , b Lab log: write the label of the selected item as the result.
### Response b
(b: 76.5%, a: 116%)

---

Target: Polyunsaturated fatty acid lipoxygenase ALOX15 (Homo sapiens)
Sequence (whole entry): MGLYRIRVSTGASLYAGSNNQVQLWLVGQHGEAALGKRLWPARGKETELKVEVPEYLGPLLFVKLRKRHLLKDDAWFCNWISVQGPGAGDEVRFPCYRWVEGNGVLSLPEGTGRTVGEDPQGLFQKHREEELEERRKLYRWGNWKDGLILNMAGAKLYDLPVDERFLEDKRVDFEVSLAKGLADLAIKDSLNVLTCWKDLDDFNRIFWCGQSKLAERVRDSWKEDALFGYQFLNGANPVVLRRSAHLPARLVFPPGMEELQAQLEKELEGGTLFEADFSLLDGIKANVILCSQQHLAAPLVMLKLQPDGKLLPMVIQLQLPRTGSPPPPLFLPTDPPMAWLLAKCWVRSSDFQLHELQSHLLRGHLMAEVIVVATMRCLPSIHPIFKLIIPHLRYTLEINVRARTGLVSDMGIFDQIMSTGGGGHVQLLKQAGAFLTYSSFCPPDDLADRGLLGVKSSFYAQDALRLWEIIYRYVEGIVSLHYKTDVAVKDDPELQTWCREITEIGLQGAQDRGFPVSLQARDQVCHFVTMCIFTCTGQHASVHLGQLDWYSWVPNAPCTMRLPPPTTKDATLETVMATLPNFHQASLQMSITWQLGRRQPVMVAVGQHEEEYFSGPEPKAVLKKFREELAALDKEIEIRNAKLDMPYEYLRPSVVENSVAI
Assay: Inhibition of recombinant human 15-LOX-1 expressed in Escherichia coli BL21(DE3) assessed as residual activity at 50 uM using linoleic acid as substrate preincubated for 10 mins followed by substrate addition
OBSERVATION TYPE: Activity (%)

For orientation, consider the following solved cases.
>>> df
                           structure_smiles  observation_type  unit_symbol  value_reported
0  COc1ccc(C(=O)c2[nH]c(N)c(C(N)=O)c2-c2ccc(OC)c(OC)c2)cc1          Activity            %              58
1  Nc1[nH]c(C(=O)c2ccccc2)c(-c2ccccc2Br)c1C(=O)NC1CCCCC1          Activity            %            86.7
2  Nc1[nH]c(C(=O)c2ccc(Br)cc2)c(-c2ccc(Br)cc2)c1C(=O)NCc1cccc2ccccc12          Activity            %            77.6

(P) COCCNC(=O)c1c(N)[nH]c(C(=O)c2ccc(Br)cc2)c1-c1ccc(Br)cc1
(Q) Nc1[nH]c(C(=O)c2ccccc2)c(-c2cc(F)ccc2Br)c1C(=O)NCCc1c[nH]c2ccccc12
### Prompt Lower value for measured Activity? Options: P , Q Lab log: write the label of the selected item as the result.
### Response Q

---

target: UniProt P16050; experiment: Inhibition of recombinant human 15-LOX-1 expressed in Escherichia coli BL21(DE3) assessed as residual activity at 50 uM using linoleic acid as substrate preincubated for 10 mins followed by substrate addition
OBSERVATION TYPE: Activity (%)

For orientation, consider the following solved cases.
                           structure_smiles  value_reported
0  Nc1[nH]c(C(=O)c2ccccc2)c(-c2ccccc2[N+](=O)[O-])c1C(=O)NCCc1c[nH]c2ccccc12            98.1
1  CCCCCCCCCCCCCCNC(=O)c1c(N)[nH]c(C(=O)c2ccc(Br)cc2)c1-c1ccc(Br)cc1            99.2

(I) Cc1ccccc1-c1c(C(=O)c2ccccc2)[nH]c(N)c1C(=O)c1ccc(Cl)cc1
(II) Nc1[nH]c(C(=O)c2ccccc2)c(-c2cccc3ccccc23)c1C(=O)NCc1ccc(F)c(F)c1
### Prompt Given I and II , report the one with the higher recorded Activity. Lab log: write the label of the selected item as the result.
### Response I

(A) Nc1[nH]c(C(=O)c2ccc(Cl)cc2)c(-c2ccc(Br)cc2)c1C(=O)c1c[nH]c2ccc(F)cc12
(B) Cc1cc(C)cc(-c2c(C(=O)c3ccccc3)[nH]c(N)c2C(=O)NCCc2c[nH]c3ccccc23)c1
### Prompt Lower value for measured Activity? Options: A , B Lab log: write the label of the selected item as the result.
### Response B
(B: -47.3%, A: 96.2%)

(1) CN(C)c1ccc(-c2c(C(=O)c3ccccc3)[nH]c(N)c2C(N)=O)cc1
(2) Nc1[nH]c(C(=O)c2ccc(Br)cc2)c(-c2ccccc2)c1C(=O)NCCc1c[nH]c2ccccc12
### Prompt Lower value for measured Activity? Options: 1 , 2 Lab log: write the label of the selected item as the result.
### Response 2

(P) NC(=O)c1c(N)[nH]c(C(=O)c2ccccc2)c1-c1ccc2c(c1)OCO2
(Q) Cc1ccccc1-c1c(C(=O)c2ccccc2)[nH]c(N)c1C(=O)NCCc1c[nH]c2ccccc12
### Prompt Given P and Q , report the one with the higher recorded Activity. Lab log: write the label of the selected item as the result.
### Response P
